target: zfT1R2a/zfT1R3 (Danio rerio, UniProt A0A8M1N8F9+Q2MHK9); assay: Ca2+ mobilization dose-response assay, stable cells expressing zfT1R2a/zfT1R3 with G16gust44; settings: EC50, [Cl-]o=10 mM; unit inferred
Sequence (A0A8M1N8F9 26-825): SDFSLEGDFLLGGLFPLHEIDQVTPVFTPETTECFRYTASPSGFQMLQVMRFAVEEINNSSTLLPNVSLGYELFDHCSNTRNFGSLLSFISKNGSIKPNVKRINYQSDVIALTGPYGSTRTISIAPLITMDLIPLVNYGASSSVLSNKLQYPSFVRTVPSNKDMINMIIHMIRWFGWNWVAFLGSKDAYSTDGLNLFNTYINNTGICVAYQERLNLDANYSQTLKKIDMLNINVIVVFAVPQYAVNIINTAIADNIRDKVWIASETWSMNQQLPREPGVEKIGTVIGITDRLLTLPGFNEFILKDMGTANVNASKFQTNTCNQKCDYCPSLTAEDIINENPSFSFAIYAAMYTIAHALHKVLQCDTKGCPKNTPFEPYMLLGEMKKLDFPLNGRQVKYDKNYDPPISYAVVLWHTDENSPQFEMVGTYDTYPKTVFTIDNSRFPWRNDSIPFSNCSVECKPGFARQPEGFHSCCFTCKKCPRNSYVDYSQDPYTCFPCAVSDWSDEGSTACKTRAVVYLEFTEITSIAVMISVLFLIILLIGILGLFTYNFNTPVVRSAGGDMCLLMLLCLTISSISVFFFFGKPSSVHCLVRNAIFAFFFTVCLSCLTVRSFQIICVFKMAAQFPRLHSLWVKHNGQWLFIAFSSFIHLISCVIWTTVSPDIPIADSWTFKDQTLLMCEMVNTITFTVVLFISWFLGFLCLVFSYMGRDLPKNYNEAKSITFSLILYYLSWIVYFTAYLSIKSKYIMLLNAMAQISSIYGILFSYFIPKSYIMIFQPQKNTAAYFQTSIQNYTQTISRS
Sequence (Q2MHK9 25-850): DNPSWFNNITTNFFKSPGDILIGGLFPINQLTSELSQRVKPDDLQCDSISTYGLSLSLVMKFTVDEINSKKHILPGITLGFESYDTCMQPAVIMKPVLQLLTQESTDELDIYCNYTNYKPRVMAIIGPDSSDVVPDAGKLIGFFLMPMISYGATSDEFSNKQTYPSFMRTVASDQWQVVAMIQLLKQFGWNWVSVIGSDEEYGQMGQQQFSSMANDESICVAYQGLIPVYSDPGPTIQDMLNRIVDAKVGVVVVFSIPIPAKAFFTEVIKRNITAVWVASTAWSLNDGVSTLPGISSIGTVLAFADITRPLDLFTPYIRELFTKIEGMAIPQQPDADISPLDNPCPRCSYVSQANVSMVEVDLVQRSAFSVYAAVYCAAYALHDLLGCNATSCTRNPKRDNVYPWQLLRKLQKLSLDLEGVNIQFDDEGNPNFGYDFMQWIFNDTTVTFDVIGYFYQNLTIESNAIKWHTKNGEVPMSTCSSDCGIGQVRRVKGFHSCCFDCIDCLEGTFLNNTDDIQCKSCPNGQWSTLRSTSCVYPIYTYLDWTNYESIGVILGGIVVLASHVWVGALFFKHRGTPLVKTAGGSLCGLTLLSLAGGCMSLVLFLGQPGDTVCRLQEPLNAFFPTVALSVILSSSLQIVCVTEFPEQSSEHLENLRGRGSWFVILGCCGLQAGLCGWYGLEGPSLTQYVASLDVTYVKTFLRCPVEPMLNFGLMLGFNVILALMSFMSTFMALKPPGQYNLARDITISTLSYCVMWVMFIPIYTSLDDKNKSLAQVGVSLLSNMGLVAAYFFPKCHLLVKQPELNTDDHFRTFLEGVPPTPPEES
quantity measured: EC50 (µM)
Please give a number only; it is taken to be in µM.

1. C[C@H](N)C(=O)O | 132

Pending compound:
Per the reported zfT1R2a/zfT1R3 (Danio rerio, UniProt A0A8M1N8F9+Q2MHK9) data, O=C(O)[C@@H]1CCCN1 has EC50 of 437

----------
biological target: hT1R2/hT1R3 (Homo sapiens, UniProt Q7RTX0+Q8TE23); experiment: Ca2+ mobilization dose-response assay, stable cells expressing hT1R2/hT1R3 with G16gust44; details: [Cl-]o=10 mM; unit inferred
quantity measured: pEC50
Entry type: numeric. Quantity: pEC50, the -log10 of concentration in molar units.

The recorded pEC50 for OC[C@H]1O[C@H](O[C@]2(CCl)O[C@H](CCl)[C@@H](O)[C@@H]2O)[C@H](O)[C@@H](O)[C@H]1Cl [sucralose, Sucralose] is 4.03

----------
molecular target: mfT1R2c/mfT1R3 T105E (Oryzias latipes, UniProt Q2MHK2+Q2MHK3, Q2MHK2:T105E); experiment: cell-based; conditions: EC50, [Cl-]o=10 mM; unit inferred
Sequence (Q2MHK2 entry or part of it T105E): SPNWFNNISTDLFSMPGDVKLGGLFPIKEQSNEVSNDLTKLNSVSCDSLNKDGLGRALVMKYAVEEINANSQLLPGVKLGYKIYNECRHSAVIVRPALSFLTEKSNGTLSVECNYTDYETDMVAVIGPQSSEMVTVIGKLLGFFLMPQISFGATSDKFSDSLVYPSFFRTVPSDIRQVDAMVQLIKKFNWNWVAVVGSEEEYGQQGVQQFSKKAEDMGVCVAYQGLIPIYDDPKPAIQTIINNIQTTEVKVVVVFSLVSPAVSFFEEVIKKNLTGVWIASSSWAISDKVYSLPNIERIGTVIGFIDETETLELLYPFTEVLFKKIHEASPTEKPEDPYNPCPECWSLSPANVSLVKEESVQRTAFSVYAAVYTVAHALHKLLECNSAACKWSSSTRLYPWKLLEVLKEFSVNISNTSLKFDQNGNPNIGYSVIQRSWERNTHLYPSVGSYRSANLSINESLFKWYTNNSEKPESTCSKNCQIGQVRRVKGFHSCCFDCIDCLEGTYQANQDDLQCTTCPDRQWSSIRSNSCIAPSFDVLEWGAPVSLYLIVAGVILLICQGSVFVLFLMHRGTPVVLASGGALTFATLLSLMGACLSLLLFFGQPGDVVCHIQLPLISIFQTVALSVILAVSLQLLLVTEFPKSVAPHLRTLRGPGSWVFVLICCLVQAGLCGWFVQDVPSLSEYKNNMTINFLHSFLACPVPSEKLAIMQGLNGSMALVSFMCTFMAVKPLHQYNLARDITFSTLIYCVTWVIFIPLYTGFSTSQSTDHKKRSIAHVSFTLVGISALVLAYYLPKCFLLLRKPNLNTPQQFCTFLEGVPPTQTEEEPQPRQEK
Sequence (Q2MHK3 entry or part of it): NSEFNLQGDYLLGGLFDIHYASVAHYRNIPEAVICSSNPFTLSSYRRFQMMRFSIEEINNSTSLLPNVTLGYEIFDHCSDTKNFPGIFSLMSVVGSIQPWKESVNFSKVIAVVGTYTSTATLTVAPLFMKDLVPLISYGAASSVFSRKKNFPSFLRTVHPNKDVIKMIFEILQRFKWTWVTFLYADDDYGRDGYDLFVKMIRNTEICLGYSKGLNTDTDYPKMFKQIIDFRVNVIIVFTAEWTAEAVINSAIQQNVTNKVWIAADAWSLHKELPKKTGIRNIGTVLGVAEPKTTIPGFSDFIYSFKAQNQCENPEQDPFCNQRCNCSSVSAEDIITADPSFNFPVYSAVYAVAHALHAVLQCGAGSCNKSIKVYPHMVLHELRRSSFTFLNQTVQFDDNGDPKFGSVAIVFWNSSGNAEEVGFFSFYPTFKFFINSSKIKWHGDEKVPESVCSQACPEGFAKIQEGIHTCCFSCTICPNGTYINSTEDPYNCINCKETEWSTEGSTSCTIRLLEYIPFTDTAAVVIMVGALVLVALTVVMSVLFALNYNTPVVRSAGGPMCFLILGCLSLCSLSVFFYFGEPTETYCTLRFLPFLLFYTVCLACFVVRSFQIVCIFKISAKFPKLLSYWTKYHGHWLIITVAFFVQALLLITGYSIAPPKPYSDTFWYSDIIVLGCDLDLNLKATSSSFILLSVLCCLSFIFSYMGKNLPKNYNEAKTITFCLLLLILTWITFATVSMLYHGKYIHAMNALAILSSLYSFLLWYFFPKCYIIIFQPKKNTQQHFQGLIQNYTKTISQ
quantity measured: EC50 (µM)
Please give a number only; it is taken to be in µM.

The reported EC50 of the compound O=C(O)[C@@H]1CCCN1 [L-Pro, L-proline] was 26.3

----------
Molecular target: hT1R2/hT1R3 T102E (Homo sapiens, UniProt Q7RTX0+Q8TE23, T102E)
Sequence (Q8TE23 20-839): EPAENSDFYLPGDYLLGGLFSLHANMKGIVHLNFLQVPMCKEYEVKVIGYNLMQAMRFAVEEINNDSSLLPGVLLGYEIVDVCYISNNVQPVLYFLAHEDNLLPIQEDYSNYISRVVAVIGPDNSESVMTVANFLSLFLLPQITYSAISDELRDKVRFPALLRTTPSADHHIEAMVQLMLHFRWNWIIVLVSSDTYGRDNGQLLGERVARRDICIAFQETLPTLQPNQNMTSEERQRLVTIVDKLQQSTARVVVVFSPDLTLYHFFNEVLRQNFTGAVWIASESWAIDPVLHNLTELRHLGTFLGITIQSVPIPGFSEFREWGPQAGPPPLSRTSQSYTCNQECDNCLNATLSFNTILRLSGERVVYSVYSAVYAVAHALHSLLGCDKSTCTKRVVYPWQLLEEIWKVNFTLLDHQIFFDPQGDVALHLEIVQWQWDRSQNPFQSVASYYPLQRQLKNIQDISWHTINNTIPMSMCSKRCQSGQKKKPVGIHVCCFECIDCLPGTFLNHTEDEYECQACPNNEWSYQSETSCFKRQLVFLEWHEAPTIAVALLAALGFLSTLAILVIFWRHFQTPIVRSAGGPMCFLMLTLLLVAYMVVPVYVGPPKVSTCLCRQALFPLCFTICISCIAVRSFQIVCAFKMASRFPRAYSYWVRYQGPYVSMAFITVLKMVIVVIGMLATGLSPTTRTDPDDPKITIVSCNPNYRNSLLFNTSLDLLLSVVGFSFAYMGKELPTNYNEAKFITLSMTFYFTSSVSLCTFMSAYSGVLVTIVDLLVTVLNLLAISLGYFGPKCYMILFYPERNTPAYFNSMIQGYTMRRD
Sequence (Q7RTX0 21-852 T102E): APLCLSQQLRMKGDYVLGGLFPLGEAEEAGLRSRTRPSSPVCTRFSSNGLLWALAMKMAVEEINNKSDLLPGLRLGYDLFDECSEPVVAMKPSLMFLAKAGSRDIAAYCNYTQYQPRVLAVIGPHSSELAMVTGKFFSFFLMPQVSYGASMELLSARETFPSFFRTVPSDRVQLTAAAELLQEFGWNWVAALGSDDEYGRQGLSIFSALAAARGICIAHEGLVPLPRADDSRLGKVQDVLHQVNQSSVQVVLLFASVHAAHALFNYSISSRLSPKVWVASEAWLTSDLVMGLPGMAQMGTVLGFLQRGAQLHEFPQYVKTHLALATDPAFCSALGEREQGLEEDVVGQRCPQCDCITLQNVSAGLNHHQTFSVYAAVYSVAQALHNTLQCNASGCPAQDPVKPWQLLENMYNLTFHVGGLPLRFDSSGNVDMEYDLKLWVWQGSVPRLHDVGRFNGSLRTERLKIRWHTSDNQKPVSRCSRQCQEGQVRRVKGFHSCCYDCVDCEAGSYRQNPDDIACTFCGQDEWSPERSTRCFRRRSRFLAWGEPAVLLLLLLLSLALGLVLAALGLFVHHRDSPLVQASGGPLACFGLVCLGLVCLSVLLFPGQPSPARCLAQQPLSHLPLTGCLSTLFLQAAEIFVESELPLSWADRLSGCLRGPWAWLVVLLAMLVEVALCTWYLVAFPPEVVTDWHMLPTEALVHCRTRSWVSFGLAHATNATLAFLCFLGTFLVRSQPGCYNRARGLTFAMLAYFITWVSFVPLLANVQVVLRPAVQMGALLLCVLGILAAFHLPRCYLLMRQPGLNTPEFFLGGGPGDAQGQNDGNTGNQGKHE
Experiment: Ca2+ mobilization dose-response assay, site X mutant hT1R2/hT1R3 T102E
Details: EC50, [Cl-]o=10 mM; unit inferred
quantity measured: pEC50
// pEC50 here means minus log10 of the molar concentration (mol/L)

Briefly, pEC50 measured for OC[C@H]1O[C@H](O[C@]2(CCl)O[C@H](CCl)[C@@H](O)[C@@H]2O)[C@H](O)[C@@H](O)[C@H]1Cl : 3.77

These measurements were taken from paper PMC10539361.
